The reported measurements were obtained from ChEMBL document CHEMBL3988442.

Field: Percent Effect. Provide a value for each of the compounds that follow.
system: Trypanosoma cruzi; test: Trypanosoma cruzi phosphomannomutase and mannose-1-phosphate guanylyltransferase assay; format: functional; parameters: scale not given: direction of the effect not stated beside the values; conditions: 10 µM

**Query** Param readout= Percent Effect; system= Trypanosoma cruzi; entry= Cc1ccc(N2CCCC(NCc3ccc(C)o3)C2)nn1 (stereo unspecified) ; returns value.
**Result** 4%

**Query** Param readout= Percent Effect; system= Trypanosoma cruzi; entry= O=C(NCCNC(=O)N1CCC(c2ccccc2)C1)C1CC1 (stereo unspecified) ; returns value.
**Result** 4.44%

**Query** Param readout= Percent Effect; system= Trypanosoma cruzi; entry= Cc1c(C(=O)N2CCCC2c2cnn(C)c2)nnn1-c1ccccc1 (stereo unspecified) ; returns value.
**Result** 4.55%

**Query** Param readout= Percent Effect; system= Trypanosoma cruzi; entry= `Cc1ccc(C(=O)N2CCN(Cc3nc(C(C)C)no3)CC2)c(=O)[nH]1` ; returns value.
**Result** -4.36%

**Query** Param readout= Percent Effect; system= Trypanosoma cruzi; entry= `COCCNC(=O)C1(c2ccccc2C)CCOCC1` ; returns value.
**Result** -5%

**Query** Param readout= Percent Effect; system= Trypanosoma cruzi; entry= CCc1nc(C2CCCN(C(=O)CCn3ccccc3=O)C2)no1 (stereo unspecified) ; returns value.
**Result** 8.08%

**Query** Param readout= Percent Effect; system= Trypanosoma cruzi; entry= CC(O)CN1CCN(C(=O)c2cnn(-c3ccc(Cl)cc3)c2)CC1 (stereo unspecified) ; returns value.
**Result** 6.13%

**Query** Param readout= Percent Effect; system= Trypanosoma cruzi; entry= `Cc1ccc(NC2CCN(C(=O)c3cccc(F)c3F)CC2)nn1` ; returns value.
**Result** 0.308%

**Query** Param readout= Percent Effect; system= Trypanosoma cruzi; entry= CC1=NN(c2ccc(C(=O)N3CCCC(n4ccnc4)C3)cc2)CC1 (stereo unspecified) ; returns value.
**Result** 9.35%

**Query** Param readout= Percent Effect; system= Trypanosoma cruzi; entry= `N#Cc1c(F)cccc1N1CCC(NS(=O)(=O)c2cccs2)CC1` ; returns value.
**Result** -9.6%

**Query** Param readout= Percent Effect; system= Trypanosoma cruzi; entry= `O=C(NCCNc1ncccn1)c1ccc(-c2ccco2)[nH]c1=O` ; returns value.
**Result** 1.23%

* * *

molecular target: Arginase-2, mitochondrial (Homo sapiens) (UniProt P78540); experiment: in vitro enzyme assay to detect the production of urea directly proportional to the activity of Arginase II; format: functional; set-up: scale not given: in the data most compounds retested in dose-response had high values; settings: 33.3 µM
Sequence (P78540 whole entry): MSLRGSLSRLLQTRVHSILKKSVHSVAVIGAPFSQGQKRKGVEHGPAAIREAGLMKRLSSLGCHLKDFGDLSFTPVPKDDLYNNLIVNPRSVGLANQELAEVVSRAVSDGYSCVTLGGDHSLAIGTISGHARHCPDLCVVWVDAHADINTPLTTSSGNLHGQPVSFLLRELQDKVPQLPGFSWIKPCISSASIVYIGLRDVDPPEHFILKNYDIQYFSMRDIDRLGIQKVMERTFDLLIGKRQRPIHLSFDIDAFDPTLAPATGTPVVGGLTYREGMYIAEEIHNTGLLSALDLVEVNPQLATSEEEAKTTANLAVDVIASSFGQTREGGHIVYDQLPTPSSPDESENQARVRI
observedProperty: Percent Effect (%)
Number in %, nothing else.

**Query** Returns the measured Percent Effect for the input compound. Input: CC(C)c1cc(NC(=O)CN2CCCC2Cn2cccn2)on1 (centres undefined)
**Result** 3.24

**Query** Returns the measured Percent Effect for the input compound. Input: `Cc1cc(CN2CCN(C(=O)c3sccc3C(C)C)CC2)no1`
**Result** 4.84

**Query** Returns the measured Percent Effect for the input compound. Input: `Cc1cc(C)n(CC(=O)N2CCC(NS(=O)(=O)c3ccccc3)CC2)n1`
**Result** 0.383

**Query** Returns the measured Percent Effect for the input compound. Input: `N#Cc1ccc(C(=O)N2CCC3(CC2)C(=O)Nc2ccccc23)cn1`
**Result** 2.73

**Query** Returns the measured Percent Effect for the input compound. Input: `Cn1cnc(S(=O)(=O)NCCN2CCCCCC2=O)c1Cl`
**Result** -0.802

**Query** Returns the measured Percent Effect for the input compound. Input: CCNC(=O)NC(=O)CSC(C)c1c(F)cccc1F (centres undefined)
**Result** -4.17

**Query** Returns the measured Percent Effect for the input compound. Input: CC(=O)Nc1nc(C(=O)N2CCCC(c3cc(C)[nH]n3)C2)cs1 (centres undefined)
**Result** 0.36

**Query** Returns the measured Percent Effect for the input compound. Input: Clc1ccc(CN2CCCC(Cn3cncn3)C2)c2ncccc12 (centres undefined)
**Result** -1.38

**Query** Returns the measured Percent Effect for the input compound. Input: CC(NC(=O)NCCCn1cncn1)c1ccc2c(c1)OCCO2 (centres undefined)
**Result** -1.66

**Query** Returns the measured Percent Effect for the input compound. Input: `COc1cc(CNC(=O)NCc2c(C)cc(C)[nH]c2=O)ccc1C`
**Result** 1.15

**Query** Returns the measured Percent Effect for the input compound. Input: `Cc1nc(-c2ccccc2)sc1C(=O)NCCNc1ncccn1`
**Result** 4.32

**Query** Returns the measured Percent Effect for the input compound. Input: `O=C(c1cccc(S(=O)(=O)NCCCc2ccco2)c1)N1CCOCC1`
**Result** 1.82

**Query** Returns the measured Percent Effect for the input compound. Input: CN(Cc1ncc(-c2ccccc2)o1)CC1CCCN1c1cccnn1 (centres undefined)
**Result** -1.9

**Query** Returns the measured Percent Effect for the input compound. Input: `CCN1C(=O)C2(CCOCC2)c2cc(NC(=O)c3ccco3)ccc21`
**Result** -11

**Query** Returns the measured Percent Effect for the input compound. Input: CCc1cnc(CN(C)C2CCN(CCS(C)(=O)=O)C2)o1 (centres undefined)
**Result** 2.21

**Query** Returns the measured Percent Effect for the input compound. Input: `COc1ccc(C(=O)N(C)Cc2cccc(C#N)c2)c(OC)c1OC`
**Result** -2.08

**Query** Returns the measured Percent Effect for the input compound. Input: c1ccc(Oc2cc(CNCC3CNc4ccnn4C3)ccn2)cc1 (centres undefined)
**Result** 2.37

**Query** Returns the measured Percent Effect for the input compound. Input: CN(CC1CCCO1)C1CCN(CCc2ccccn2)CC1 (centres undefined)
**Result** 0.924

**Query** Returns the measured Percent Effect for the input compound. Input: COc1cc(C(=O)NC(CC(=O)O)c2cccs2)cc(Cl)c1OC (centres undefined)
**Result** 1.07

**Query** Returns the measured Percent Effect for the input compound. Input: `CC(=O)N1[C@H](Cn2cncn2)C[C@@H]2CN(S(C)(=O)=O)CC[C@@H]21`
**Result** -74.5

**Query** Returns the measured Percent Effect for the input compound. Input: O=C(c1ccccc1N1CCOCC1)N1CCCC(n2cccn2)C1 (centres undefined)
**Result** -0.802

**Query** Returns the measured Percent Effect for the input compound. Input: `Cc1cc(F)ccc1CNCCn1cccn1`
**Result** -0.883

**Query** Returns the measured Percent Effect for the input compound. Input: `CCN(C(=O)CCCOc1ccccc1F)c1ccncc1`
**Result** -20.1

**Query** Returns the measured Percent Effect for the input compound. Input: Cc1nc(C2CCCN2C(=O)CNS(C)(=O)=O)no1 (centres undefined)
**Result** 0
